# subject of test: the molecule itself
# procedure summary: SEC titration of the protomer alone at several injection concentrations (Superdex 200, normalised A230); self-association
experimental readout: binding result

Solved cases (4 shown):
protein	experimental readout	obs value
29A53 (designed binder, also called LHD29A53) TWQWVLINISEEARQLIEKAVRAISKKEGTEVHFEKDDGVLHIRVKNLHEKRAREIHKVAKLILEVAAAERIVRERPGSNLAKKALEIILRAAEELAKADVDAALEAAVRAAEKVVREQPGSNLAKKALEIILRAAEELAKLPDPEALKEAVKAAEKVVREQPGSELAKKALEIIERAAEELKKSPDPEAQKEAKKAEQKVREERPGSSGSHHHHHH	binding result	binds
317B (designed binder, also called LHD317 B; LHD317B) GGSDVEWRFTNVSEEEQEKLARFVLQVAQLAGTQVIFTTRPGELRIRVHNLDELLALAIELYAQGLRLGDKHVQHLAKKAIEAILRGDRKLARFLLEAARAMSRATERPGSNLAKKALEEILRLAEELAKDPDPESLKAAVHCAEFVVRYQPGSNLAKKALEIILRAAEELAKLPDPEALKEAVKAAEKVVREQPGSELAKKALEIIERAAEELKKSPDPEAQKEAKKAEQKVREERPGSGGSGSHHWGSGSHHHHHH	binding result	binds
101A53 (designed binder, also called LHD101A53) HHHHHHGSGLNDIFEAQKIEWHEAENLYFQSGSNDEKEKLKELLKRAEELAKSPDPEDLKEAVRLAEEVVRERPGSNLAKKALEIILRAAEELAKLPDPEALKEAVKAAEKVVREQPGSNLAKKALEIILRAAAALANLPDPESRKEADKAADKVRREQPGSELAVVAAIISAVARMGVKMELHPSGNEVKVVIKGLHIKQQRQLYRDVREAAKKAGVEVEIEVEGDTVTIVVRG	binding result	no binding
29B53 (designed binder, also called LHD29B53) SSIFLLSNVDESARQLAEELVREISKKEGTEVRFEKDDGFLTIEVKNLSEERLREIARALQLIVDVANAERVVRERPGSNLAKKALEIILRAAEELAKLPLKASLKAAVIAAELVVREQPGSNLAKKALEIILRAAEELAKLPDPEALKEAVKAAEKVVREQPGSELAKKALEIIERAAEELKKSPDPEAQKEAKKAEQKVREERPGSSGSHHHHHH	binding result	binds

Now let's try a different one.
Return the recorded binding result value; entry: 101A21 (designed binder) HHHHHHGSGLNDIFEAQKIEWHEAENLYFQSGSSEKEKVEELAQRIREQLPDTELAREAQELADEARKSDDSEALKVVYLALRIVQQLPDTELAREALELAKEAVKSTDSEKLKVVYLALRVVQQLPDTEEARKALEIAKEAVKADAQILLAIARAVLKMGVEMEVHPSGNEVKVVIKGLHIKQQRQLYRDVREAAKKAGVEVEIEVEGDTVTIVVRE no binding
